- SYSTEM NAME: HLA-A*0201 (human), P04439
ASSAY ENDPOINT: BL50 (half-maximal binding level) (µM)
Just the number in µM, nothing appended.

TLNEDLLEI (modifications not checked) [pp1a-445]    19.2

Enquiry: Name the recorded BL50 (half-maximal binding level) of the item CLDAGINYV (modifications not checked) [pp1a-2187] in your answer.
Return: 3

Enquiry: Name the recorded BL50 (half-maximal binding level) of the item AMWLLLLSI (modifications not checked) [pp1a-2207] in your answer.
Return: 323

Enquiry: Name the recorded BL50 (half-maximal binding level) of the item FLNRFTTTL (modifications not checked) [pp1a-3459] in your answer.
Return: 39.6

Enquiry: Name the recorded BL50 (half-maximal binding level) of the item ALSGVFCGV (modifications not checked) [pp1a-2990] in your answer.
Return: 6.2

Enquiry: Name the recorded BL50 (half-maximal binding level) of the item KLSAGVEFL (modifications not checked) [pp1a-634] in your answer.
Return: 59.8

Enquiry: Name the recorded BL50 (half-maximal binding level) of the item MLLTFLTSL (modifications not checked) [pp1a-3560] in your answer.
Return: 47.1

Enquiry: Name the recorded BL50 (half-maximal binding level) of the item TLGVLVPHV (modifications not checked) [pp1a-103] in your answer.
Return: 3.1
